Just for reference, patent US5602174A is where these values come from.

# Test Method Notes: Haemodynamic profile in anaesthetized rats
# Type: in vivo, rat
# Measurement Parameters: i.v. at Dhr^20, anaesthetized rat
# Excerpt: The effect of compounds of the invention on heart rate, systolic left ventricular pressure, left ventricular dp/dt max and mean arterial blood pressure was investigated so as to obtain information on the anti-anginal potential of these compounds, by reducing the oxygen demand of the ischaemic heart. *Dhr^20 = i.v. dose which reduces heart rate by ca. 20% **LVP = systolic left ventricular pressure ***BP = mean arterial blood pressure ^a = i.d. administration
This listing pairs molecules with measured % effect of Dhr^20 on BP (mean arterial blood pressure).

Use the examples below as a reference point.
| Smiles Representation | Result |
| --- | --- |
| COc1ccc(CCN(C)CCCN(C(=O)Oc2ccccc2)c2ccc(OC)c(OC)c2)cc1OC | -14% |
| COc1ccc(CCN(C)CCCN(C(=O)NCc2ccccc2)c2ccc(OC)c(OC)c2)cc1OC | -15% |
| CCCCCN(CCCN(C)CCc1ccc(OC)c(OC)c1)c1ccc(OC)c(OC)c1 | -9% |

Here is the next item to consider.
In: Query % effect of Dhr^20 on BP (mean arterial blood pressure) for `CCCCC(=O)N(CCCN(C)CCc1ccc(OC)c(OC)c1)c1ccc(OC)c(OC)c1`
Out: -11%

----------
# Test Method Notes: Haemodynamic profile in anaesthetized rats
# Assay type: in vivo, rat
# Measurement Parameters: i.v. at Dhr^20, anaesthetized rat
// values below are reported % effect of Dhr^20 on LVP (systolic left ventricular pressure)
The response must be a number in % with no trailing unit.

// worked examples, % effect of Dhr^20 on LVP (systolic left ventricular pressure) included
| Smiles Representation | Numeric Readout |
| --- | --- |
| COc1ccc(CCN(C)CCCN(c2ccc(OC)c(OC)c2)c2ncc([N+](=O)[O-])cc2[N+](=O)[O-])cc1OC | -6 |
| CCCNC(=O)N(CCCN(C)CCc1ccc(OC)c(OC)c1)c1ccc(OC)c(OC)c1 | -2 |

Okay, next one:
In: Report measured % effect of Dhr^20 on LVP (systolic left ventricular pressure); entry is `COc1ccc(CCN(C)CCCN(C(=O)NCc2ccccc2)c2ccc(OC)c(OC)c2)cc1OC`
Out: -10

----------
# Test Method Notes: Haemodynamic profile in anaesthetized rats
# Type: in vivo, rat
# Measurement Parameters: i.v. at Dhr^20, anaesthetized rat
Item-by-item account of % effect of Dhr^20 on dp/dtmax (left ventricular dp/dt max)
Number first, unit second: that is the form wanted.

In: Identify measured % effect of Dhr^20 on dp/dtmax (left ventricular dp/dt max) associated with `COc1ccc(CCN(C)CCCN(C(=O)Oc2ccccc2)c2ccc(OC)c(OC)c2)cc1OC`
Out: -2%

In: Indicate the recorded % effect of Dhr^20 on dp/dtmax (left ventricular dp/dt max) value for this compound: `COc1ccc(CCN(C)CCCN(C(=O)NCc2ccccc2)c2ccc(OC)c(OC)c2)cc1OC`
Out: -20%

In: Annotate the compound `CCCCCN(CCCN(C)CCc1ccc(OC)c(OC)c1)c1ccc(OC)c(OC)c1` with its measured % effect of Dhr^20 on dp/dtmax (left ventricular dp/dt max).
Out: -10%

In: Kindly indicate its recorded % effect of Dhr^20 on dp/dtmax (left ventricular dp/dt max). Item: COc1ccc(CCN(C)CCN(C(=O)NC(C)c2ccccc2)c2ccc(OC)c(OC)c2)cc1OC (stereo not shown)
Out: -3%
